The measurements presented in this section are drawn from ChEMBL document CHEMBL4316638.

Test system: Staphylococcus aureus
Assay: Antibacterial activity against Staphylococcus aureus ATCC 25923 by microplate assay
Assay type: functional, organism-based
Calls of active or inactive are those of the source. No cut-off for these calls is given here.
quantity-kind: Activity

• COc1ccc2c(c1O)C(=O)O[C@H](CCCO)C2 = inactive
• C=C1[C@@]23C(=O)O[C@H](C)[C@@]2(O)C(=O)O[C@]1(C)[C@@H](O)C1=C2COC4CC(=O)OC(C)(C)[C@@]24CC[C@@]13C (stereo not given in full) = inactive
• C=C1[C@@]23C(=O)O[C@H](C)[C@]24O[C@@]2(C(=C)[C@]5(C=CC(=O)OC5(C)C)C[C@@H](O)[C@]32C)[C@H](OC(C)=O)[C@@]1(C)OC4=O = inactive
• C=C1[C@]2(C)C(=O)[C@]3(O)[C@@H](C)OC(=O)[C@]13[C@@]1(C)CC[C@@]3(C=CC(=O)OC3(C)C)C(C)=C1[C@@H]2OC(C)=O = inactive
• C=C1[C@@]23C(=O)O[C@H](C)[C@@]2(O)C(=O)O[C@]1(C)[C@@H](O)C1=C(C)[C@]2(CCC(=O)OC2(C)C)CC[C@@]13C = inactive
• C=C1[C@]2(CCC(=O)OC2(C)C)C[C@@H](OC(=O)/C(C)=C\C)[C@]2(C)[C@]34C(=O)O[C@H](C)[C@]35O[C@]12[C@H](OC(C)=O)[C@@](C)(OC5=O)C4=O = inactive
• C=C1[C@@]23C(=O)O[C@H](C)[C@]24O[C@@]2(C(=C)[C@]5(C=CC(=O)OC5(C)C)CC[C@]32C)[C@H](O)[C@@]1(C)OC4=O = inactive
• CC(=O)OCCC[C@@H]1Cc2cccc(O)c2C(=O)O1 = inactive
• CC(=O)CCC[C@@H]1Cc2cccc(O)c2C(=O)O1 = inactive
• C=C1[C@@]23C(=O)O[C@H](C)[C@]24O[C@@]2(C(=C)[C@]5(C=CC(=O)OC5(C)C)C[C@@H](O)[C@]32C)[C@H](O)[C@@]1(C)OC4=O = inactive
• COc1c(O)ccc2c1C(=O)O[C@H](CCC[C@@H](C)O)C2 = inactive
• C[C@H](O)CCC[C@@H]1C[C@@H]2C[C@@H](O)CC(O)=C2C(=O)O1 = inactive
• C=C1[C@@]23C(=O)O[C@H](C)[C@@]2(O)C(=O)O[C@]1(C)[C@@H](OC(C)=O)C1=C(C)[C@]2(CCC(=O)OC2(C)C)CC[C@@]13C = inactive
• C=C1[C@@]23C(=O)O[C@H](C)[C@]24O[C@@]2(C(=C)[C@]5(CCC(=O)OC5(C)C)C[C@@H](O)[C@]32C)[C@H](OC(C)=O)[C@@]1(C)OC4=O = inactive
• CC(=O)CCC[C@@H]1C[C@@H]2C[C@@H](O)CC(O)=C2C(=O)O1 = inactive
• COc1c(O)ccc2c1C(=O)O[C@H](CCCC(C)=O)C2 = inactive
• O=C1O[C@H](CCCO)Cc2cccc(O)c21 = inactive
• C[C@@H](O)CCC[C@@H]1Cc2c(O)ccc(O)c2C(=O)O1 = inactive
• COC(=O)CC[C@@H]1Cc2ccc(O)c(OC)c2C(=O)O1 = inactive
• C[C@@H](O)CCC[C@H]1OC(=O)c2c(O)cccc2[C@@H]1O = inactive

----------
Test system: Helicoverpa armigera
Assay: Insecticidal activity against Helicoverpa armigera hubner measured every other day for 8 days starting from 2 days post dosing
Type: functional, organism-based
Measured IC50, listed per entry for reference.
quantity-kind: IC50 (µg/mL)

- C[C@@H](O)CCC[C@H]1OC(=O)c2c(O)cccc2[C@@H]1O: 100
- COC(=O)CC[C@@H]1Cc2ccc(O)c(OC)c2C(=O)O1: 200
- C[C@@H](O)CCC[C@@H]1Cc2c(O)ccc(O)c2C(=O)O1: 100
- CC(=O)CCC[C@@H]1C[C@@H]2C[C@@H](O)CC(O)=C2C(=O)O1: 200
- C=C1[C@@]23C(=O)O[C@H](C)[C@]24O[C@@]2(C(=C)[C@]5(CCC(=O)OC5(C)C)C[C@@H](O)[C@]32C)[C@H](OC(C)=O)[C@@]1(C)OC4=O: 50
- C[C@H](O)CCC[C@@H]1C[C@@H]2C[C@@H](O)CC(O)=C2C(=O)O1: 200

----------
System: Caenorhabditis elegans
Experiment: Insecticidal activity against Caenorhabditis elegans measured at 12 […]
Assay type: functional, organism-based
quantity-kind: EC50 (µg/mL)

* C=C1[C@@]23C(=O)O[C@H](C)[C@@]2(O)C(=O)O[C@]1(C)[C@@H](O)C1=C2COC4CC(=O)OC(C)(C)[C@@]24CC[C@@]13C (some centres not stated) | 19.1
* C=C1[C@@]23C(=O)O[C@H](C)[C@]24O[C@@]2(C(=C)[C@]5(C=CC(=O)OC5(C)C)C[C@@H](O)[C@]32C)[C@H](OC(C)=O)[C@@]1(C)OC4=O | 20.6
* C=C1[C@]2(CCC(=O)OC2(C)C)C[C@@H](OC(=O)/C(C)=C\C)[C@]2(C)[C@]34C(=O)O[C@H](C)[C@]35O[C@]12[C@H](OC(C)=O)[C@@](C)(OC5=O)C4=O | 9.4
* c1ccc([C@H]2CN3CCSC3=N2)cc1 | 4.8
* C=C1[C@@]23C(=O)O[C@H](C)[C@]24O[C@@]2(C(=C)[C@]5(C=CC(=O)OC5(C)C)C[C@@H](O)[C@]32C)[C@H](O)[C@@]1(C)OC4=O | 9.9
* C=C1[C@@]23C(=O)O[C@H](C)[C@]24O[C@@]2(C(=C)[C@]5(C=CC(=O)OC5(C)C)CC[C@]32C)[C@H](O)[C@@]1(C)OC4=O | 38.2
* C=C1[C@@]23C(=O)O[C@H](C)[C@@]2(O)C(=O)O[C@]1(C)[C@@H](O)C1=C(C)[C@]2(CCC(=O)OC2(C)C)CC[C@@]13C | 19.5

----------
System: Helicoverpa armigera
Experiment: Insecticidal activity against Helicoverpa armigera hubner measured every other day for 8 days starting from 2 days post dosing
Assay type: functional, organism-based
Measured IC50, listed per entry for reference.
quantity-kind: IC50 (µg/mL)

* C=C1[C@@]23C(=O)O[C@H](C)[C@]24O[C@@]2(C(=C)[C@]5(C=CC(=O)OC5(C)C)C[C@@H](O)[C@]32C)[C@H](O)[C@@]1(C)OC4=O | 200
* C=C1[C@@]23C(=O)O[C@H](C)[C@@]2(O)C(=O)O[C@]1(C)[C@@H](O)C1=C(C)[C@]2(CCC(=O)OC2(C)C)CC[C@@]13C | 100
* C/C=C(\C)C(=O)O[C@H]1C[C@@H](OC(C)=O)[C@@]2(C(=O)OC)CO[C@H]3[C@@H](O)[C@@](C)([C@]45O[C@@]4(C)[C@H]4C[C@@H]5O[C@@H]5OC=C[C@@]54O)[C@H]4[C@]1(CO[C@]4(O)C(=O)OC)[C@@H]32 [AZADIRACTIN] | 25
* C=C1[C@@]23C(=O)O[C@H](C)[C@@]2(O)C(=O)O[C@]1(C)[C@@H](OC(C)=O)C1=C(C)[C@]2(CCC(=O)OC2(C)C)CC[C@@]13C | 50
* C=C1[C@]2(CCC(=O)OC2(C)C)C[C@@H](OC(=O)/C(C)=C\C)[C@]2(C)[C@]34C(=O)O[C@H](C)[C@]35O[C@]12[C@H](OC(C)=O)[C@@](C)(OC5=O)C4=O | 200
